# tested target: Cytochrome P450 2C9 (Homo sapiens)
# assay details: blockers of cytochrome P450 2C9 activity – biochemical, luminescence, ADME assay, primary screen (AID 777)
# recorded conditions: CYP2C9 Supersomes, luciferin-H conversion, at 5 µM
Hit rate of the full screen: of about 96,000 compounds, about 19,000 (20%) were called active.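 The calls were made as follows: active = blocking of liver enzyme CYP2C9 beyond about 50% at 5 µM (limit read from the data); inactive = the rest.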 Not all results are given here.
Response enum: active, inactive

Hi, do you know how COc1cc2c(cc1NC(=O)CN1CCN(S(=O)(=O)c3ccc(F)cc3)CC1)oc1ccccc12 came out in this test?
active

Hi, do you know how CCc1ccccc1NC(=O)CSc1nnc([C@@H](NC(=O)OC(C)(C)C)C(C)C)o1 came out in this test?
inactive

Hi, do you know how CCC(=NC1CC(C)(C)NC(C)(C)C1)C1=C(O)CC(C)(C)CC1=O came out in this test?
inactive

Hi, do you know how CCN(CC)CCn1c2ccc(Cl)cc2c2nc(C)sc21 came out in this test?
inactive

Hi, do you know how COc1ccc(NC(=O)CN2CCN(S(=O)(=O)c3ccc(F)cc3)CC2)cc1Cl came out in this test?
inactive

###

Give inhibition for every item shown.
# tested target: Cytochrome P450 2C9 (Homo sapiens) (UniProt P11712)
# Sequence (P11712 whole entry, looked up): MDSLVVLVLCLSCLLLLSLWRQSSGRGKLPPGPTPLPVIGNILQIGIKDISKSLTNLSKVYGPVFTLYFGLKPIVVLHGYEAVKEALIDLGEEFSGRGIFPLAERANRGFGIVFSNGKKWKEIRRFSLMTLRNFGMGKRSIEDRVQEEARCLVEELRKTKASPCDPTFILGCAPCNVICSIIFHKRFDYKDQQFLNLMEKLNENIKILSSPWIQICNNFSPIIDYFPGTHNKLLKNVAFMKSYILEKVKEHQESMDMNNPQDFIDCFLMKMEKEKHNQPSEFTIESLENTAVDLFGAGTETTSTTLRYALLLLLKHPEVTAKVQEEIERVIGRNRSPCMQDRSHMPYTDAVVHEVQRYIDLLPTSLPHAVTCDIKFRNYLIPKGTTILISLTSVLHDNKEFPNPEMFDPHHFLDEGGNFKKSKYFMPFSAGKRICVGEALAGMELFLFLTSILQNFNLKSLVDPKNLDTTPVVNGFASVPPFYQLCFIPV
# assay details: blockers of cytochrome P450 2C9 activity – biochemical, luminescence, ADME assay, primary screen (AID 777)
# recorded conditions: CYP2C9 Supersomes, luciferin-H conversion, at 5 µM, hits give high values
Out of some 96,000 compounds screened, about 19,000 (20%) were called active. A selection follows.

// sample COc1ccc(-c2nn(C)c(=O)c3ccccc23)cc1NC(=O)COc1ccccc1 , its inhibition was 27.9% (inactive)

// sample O=C(CSCc1c(F)cccc1Cl)NCC1CCCO1 (stereo not given) , its inhibition was -7.5% (inactive)

// sample COc1ccc(-n2nnc3c(=O)n(CC(=O)N4CCC(Cc5ccccc5)CC4)cnc32)cc1 , its inhibition was 17.9% (inactive)

// sample Cc1ccc(NC(=O)N2CCC(c3nc4c(nnn4Cc4c(F)cccc4Cl)c(=O)[nH]3)CC2)cc1 , its inhibition was 87.7% (active)

// sample O=C(NCc1ccco1)C1CCCN(S(=O)(=O)c2ccccc2)C1 (stereo not given) , its inhibition was 30.4% (inactive)

// sample CCCSc1nc2c(c(=O)[nH]c(=O)n2C)n1CCc1ccccc1 , its inhibition was 14.6% (inactive)

// sample Cc1ccc(Cn2nnc3c(=O)n(CC(=O)N4CCCCC4)cnc32)cc1 , its inhibition was -4.1% (inactive)

// sample COc1ccc(Cn2nnc3c(=O)[nH]c(C4CCN(C(=O)c5ccccc5Cl)CC4)nc32)cc1 , its inhibition was 79.7% (active)

// sample Cc1c(Br)c([N+](=O)[O-])nn1C(C)C(=O)Nc1nccs1 (stereo not given) , its inhibition was 73.2% (active)

// sample Cc1ccc(NC(=O)N2CCC(C(=O)NCc3ccc(F)cc3)CC2)cc1 , its inhibition was 34% (inactive)

###

# tested target: Cytochrome P450 2C9 (Homo sapiens)
# assay details: blockers of cytochrome P450 2C9 activity – biochemical, luminescence, ADME assay, primary screen (AID 777)
# recorded conditions: CYP2C9 Supersomes, luciferin-H conversion, at 5 µM, hits give high values
In all, about 96,000 compounds went through this assay and about 19,000 (20%) were called active. Not all results are given here.
Give inhibition for every item shown.
The answer is to be given in %; state only the numeric part.

Record COc1cccc(C2/C(=C(/O)c3ccncc3)C(=O)C(=O)N2CCCN(C)C)c1 (stereo unspecified) has Cytochrome P450 2C9 (Homo sapiens) inhibition equal to -17.5

Record COC(=O)c1sccc1NC(=O)CCC1CCCC1 has Cytochrome P450 2C9 (Homo sapiens) inhibition equal to -11.7

Record O=C(CCCOc1ccccc1)Nc1cccc(C(=O)O)c1 has Cytochrome P450 2C9 (Homo sapiens) inhibition equal to 9.5

Record CCOC(=O)CSc1nncc2ccc(OC)c(OC)c12 has Cytochrome P450 2C9 (Homo sapiens) inhibition equal to 4.3

Record N#Cc1cccc(NC(=O)CCC2CCCC2)c1 has Cytochrome P450 2C9 (Homo sapiens) inhibition equal to 56.8

Record COC(=O)c1ccc(C(=O)OC)c(NC(=S)N2CCCCC2)c1 has Cytochrome P450 2C9 (Homo sapiens) inhibition equal to 14

Record O=C(CNC(=O)Cc1ccccc1)NCC(=O)OCC(=O)c1ccccc1Cl has Cytochrome P450 2C9 (Homo sapiens) inhibition equal to -33.1

Record CCn1c(NCCc2ccc(OC)c(OC)c2)nc2c1c(=O)n(C)c(=O)n2C has Cytochrome P450 2C9 (Homo sapiens) inhibition equal to 12.4

Record O=C(c1ccc(=O)[nH]c1)N(Cc1ccco1)C1(C(=O)NC2CCCCC2)CCCCC1 has Cytochrome P450 2C9 (Homo sapiens) inhibition equal to -8.6

Record Cn1c(N)c(C(=O)COC(=O)C23CC4CC(CC(C4)C2)C3)c(=O)n(C)c1=O has Cytochrome P450 2C9 (Homo sapiens) inhibition equal to 29.6

Record CCN1CCCC1CNC(=O)Cn1cnc2ccc(S(=O)(=O)N3CCC(C)CC3)cc2c1=O (stereo unspecified) has Cytochrome P450 2C9 (Homo sapiens) inhibition equal to 7.3
